Cited source: patent US20230203155A1

Target: T1, mouse serum albumin (mouse, UniProt P07724 25-608)
T1 construct: also called MSA
T1 sequence (P07724 25-608 limits assumed): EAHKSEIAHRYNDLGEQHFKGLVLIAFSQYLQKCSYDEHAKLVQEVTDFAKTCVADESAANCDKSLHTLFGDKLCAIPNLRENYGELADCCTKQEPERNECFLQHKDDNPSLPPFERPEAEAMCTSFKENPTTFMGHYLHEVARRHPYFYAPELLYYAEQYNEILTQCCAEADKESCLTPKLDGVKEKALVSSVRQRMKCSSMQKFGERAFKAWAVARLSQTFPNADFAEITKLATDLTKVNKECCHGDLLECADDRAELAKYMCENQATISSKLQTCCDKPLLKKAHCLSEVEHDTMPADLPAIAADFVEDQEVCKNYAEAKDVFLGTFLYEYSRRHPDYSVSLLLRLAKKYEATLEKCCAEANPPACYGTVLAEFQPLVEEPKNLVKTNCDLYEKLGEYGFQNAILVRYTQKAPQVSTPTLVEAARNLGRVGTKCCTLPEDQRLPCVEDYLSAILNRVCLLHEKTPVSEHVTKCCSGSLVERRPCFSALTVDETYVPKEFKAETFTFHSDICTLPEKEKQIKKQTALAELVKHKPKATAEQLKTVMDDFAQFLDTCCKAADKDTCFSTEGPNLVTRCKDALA
Assay: SPR, albumin on chip, pH 7.4;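 note: Human, mouse, rat and cynomolgus serum albumins amine-coupled to carboxyl sensor chips, with a hen egg lysozyme surface measured in parallel as negative control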
reportedMetric: pKd
The quantity pKd is defined as the negative base-10 logarithm of the molar concentration.

Solved cases below.
- binder: "BA11 C-terminal thiol derivative (VNAR, C-terminal thiol (intein cleavage with cysteamine), also called BA11-SH) VNAR: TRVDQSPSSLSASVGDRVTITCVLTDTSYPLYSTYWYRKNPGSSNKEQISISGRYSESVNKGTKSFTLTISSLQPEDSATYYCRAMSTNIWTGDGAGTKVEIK"
  pKd: 8.32
- binder: "BA11-C terminal cysteine-maleimide-peg-fluorescein (VNAR, C-terminal cysteine conjugated to maleimide-peg-fluorescein, also called BA11-cys-mal-Fl) VNAR: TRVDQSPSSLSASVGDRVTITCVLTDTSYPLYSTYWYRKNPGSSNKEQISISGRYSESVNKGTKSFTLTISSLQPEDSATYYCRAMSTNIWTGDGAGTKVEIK"
  pKd: 8.30
- binder: "BA11-C term thiol-maleimide-peg-fluorescein (VNAR, C-terminal thiol conjugated to maleimide-peg-fluorescein, also called BA11-S-mal-Fl) VNAR: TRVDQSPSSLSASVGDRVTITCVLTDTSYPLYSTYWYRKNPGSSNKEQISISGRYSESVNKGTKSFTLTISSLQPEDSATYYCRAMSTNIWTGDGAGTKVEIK"
  pKd: 8.30

Tell us which pKd value is on record for BA11-aminoxy (VNAR, C-terminal aminoxy (intein cleavage with dioxyamine)) VNAR: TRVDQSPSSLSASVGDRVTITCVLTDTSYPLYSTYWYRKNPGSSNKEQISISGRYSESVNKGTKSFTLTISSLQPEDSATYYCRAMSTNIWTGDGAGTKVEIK 8.06

Tell us which pKd value is on record for BA11-oxime-fluorescein (VNAR, C-terminal oxime-linked benzaldehyde-peg-fluorescein) VNAR: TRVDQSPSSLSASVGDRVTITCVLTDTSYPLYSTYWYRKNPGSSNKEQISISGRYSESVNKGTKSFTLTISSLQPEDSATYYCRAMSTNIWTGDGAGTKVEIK 8.37

Tell us which pKd value is on record for BA11 (humanised HSA-binding VNAR) (VNAR, VNAR) VNAR: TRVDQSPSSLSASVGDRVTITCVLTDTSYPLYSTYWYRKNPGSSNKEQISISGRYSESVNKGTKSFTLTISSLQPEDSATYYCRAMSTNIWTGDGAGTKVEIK 8.72
